Target: T1, CRF2R; further: reference of the scale not given here
T1 sequence (Q13324 whole entry, species assumed, looked up): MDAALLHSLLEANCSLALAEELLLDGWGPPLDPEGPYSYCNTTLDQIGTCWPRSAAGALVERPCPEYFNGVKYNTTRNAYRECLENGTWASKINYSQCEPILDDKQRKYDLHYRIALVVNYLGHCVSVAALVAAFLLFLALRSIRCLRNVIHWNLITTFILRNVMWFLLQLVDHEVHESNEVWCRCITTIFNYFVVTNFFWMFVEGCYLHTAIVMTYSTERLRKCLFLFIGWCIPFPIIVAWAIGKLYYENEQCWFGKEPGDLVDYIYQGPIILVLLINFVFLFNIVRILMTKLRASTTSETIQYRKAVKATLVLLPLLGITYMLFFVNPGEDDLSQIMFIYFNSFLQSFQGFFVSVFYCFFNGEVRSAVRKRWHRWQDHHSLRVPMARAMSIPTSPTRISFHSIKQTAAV
Experiment: cell-based or functional assay
experimental.readout: CRF2R Emax % (%)
Please state the figure in %; there is no need to write the unit.

Request: # query: CRF2R Emax % of entry ZGPPISIDLPFQLLRKAIEIEKQEKEKQQAANNALLLDTI (C-terminal amide) [SEQ ID NO 365]
Result: 94

Request: # query: CRF2R Emax % of entry ZGPPISIDLPQILLRKMIEIEKQEKEKQQAANNARLLARI (C-terminal amide) [SEQ ID NO 285]
Result: 97.1

Request: # query: CRF2R Emax % of entry ZGPPISIDLPQILLRKVIEIEKQEKEKQQAANNALLLATI (C-terminal amide) [SEQ ID NO 299]
Result: 71.5

Request: # query: CRF2R Emax % of entry ZGPPISIDLPFQLLRKVIEIEKQEKEKQQAANNARLLDTI (C-terminal amide) [SEQ ID NO 278]
Result: 100

Request: # query: CRF2R Emax % of entry ZGPPISIDVPYQLLRKVIEIEKQEKEKQQAANNARLLDTI (C-terminal amide) [SEQ ID NO 374]
Result: 91

Request: # query: CRF2R Emax % of entry ZGPPISIDLPFQLLRKVIEIEKQEKEKQQAANNARLLARI (not fully specified; C-terminal amide) [SEQ ID NO 279]
Result: 100
